FYI, the data here is from patent US20250197451A1.

- target under test: T1, biotin-labelled EZH2 protein (UniProt Q15910 1-746, limits assumed, biotin label (EZ-link NHS-PEO4-Biotinylation kit))
- T1 construct: Probe in solution (1 ug/ml) on the KDM2B peptide microarray; also called NHS-PEO4-Biotinylation-labelled EZH2 protein; recombinant protein
- T1 sequence (Q15910 whole entry): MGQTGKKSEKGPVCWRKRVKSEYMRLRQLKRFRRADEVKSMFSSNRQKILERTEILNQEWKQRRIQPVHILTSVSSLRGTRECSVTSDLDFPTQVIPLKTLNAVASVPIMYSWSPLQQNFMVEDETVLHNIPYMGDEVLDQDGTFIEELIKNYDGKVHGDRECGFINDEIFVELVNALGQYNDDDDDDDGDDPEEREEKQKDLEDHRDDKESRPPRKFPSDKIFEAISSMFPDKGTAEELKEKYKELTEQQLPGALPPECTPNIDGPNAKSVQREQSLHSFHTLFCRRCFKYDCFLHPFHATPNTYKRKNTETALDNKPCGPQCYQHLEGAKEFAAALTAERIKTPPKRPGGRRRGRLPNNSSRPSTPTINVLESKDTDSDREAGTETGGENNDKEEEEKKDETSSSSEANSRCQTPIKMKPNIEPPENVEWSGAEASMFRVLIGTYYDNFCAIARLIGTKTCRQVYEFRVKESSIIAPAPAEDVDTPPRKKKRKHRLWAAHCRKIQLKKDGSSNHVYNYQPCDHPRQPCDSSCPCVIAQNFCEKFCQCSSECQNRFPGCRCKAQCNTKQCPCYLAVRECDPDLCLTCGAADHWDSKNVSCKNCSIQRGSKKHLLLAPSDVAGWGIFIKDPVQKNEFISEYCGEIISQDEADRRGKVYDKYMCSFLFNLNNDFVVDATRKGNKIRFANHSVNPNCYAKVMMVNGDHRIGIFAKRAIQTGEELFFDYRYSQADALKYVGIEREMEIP
- assay summary: KDM2B peptide array probed with biotin-EZH2 1 ug/ml, SA-HRP/ECL;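 also: 100% is the highest background-corrected spot optical density on the membrane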;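 also: Background-corrected optical density of each spot on the membrane, given as percent of the brightest spot (100%), color developed for 5 minutes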
Recorded Intensity (%) values for a group of binders are listed next.
measurement type: Intensity (%)

binder="PDFTVRDVKLLVGSR [peptide 25]" unit_name=% observed_value=0.02
binder="HREVWMAVFSYLSHQ [peptide 214]" unit_name=% observed_value=0
binder="RDVKLLVGSRRLVDV [peptide 26]" unit_name=% observed_value=0.36
